MSG Enh. Ratio values by entry
assayed.target: T1R umami taste receptor (Homo sapiens, UniProt Q7RTX0+Q7RTX1)
Sequence (Q7RTX1 21-841): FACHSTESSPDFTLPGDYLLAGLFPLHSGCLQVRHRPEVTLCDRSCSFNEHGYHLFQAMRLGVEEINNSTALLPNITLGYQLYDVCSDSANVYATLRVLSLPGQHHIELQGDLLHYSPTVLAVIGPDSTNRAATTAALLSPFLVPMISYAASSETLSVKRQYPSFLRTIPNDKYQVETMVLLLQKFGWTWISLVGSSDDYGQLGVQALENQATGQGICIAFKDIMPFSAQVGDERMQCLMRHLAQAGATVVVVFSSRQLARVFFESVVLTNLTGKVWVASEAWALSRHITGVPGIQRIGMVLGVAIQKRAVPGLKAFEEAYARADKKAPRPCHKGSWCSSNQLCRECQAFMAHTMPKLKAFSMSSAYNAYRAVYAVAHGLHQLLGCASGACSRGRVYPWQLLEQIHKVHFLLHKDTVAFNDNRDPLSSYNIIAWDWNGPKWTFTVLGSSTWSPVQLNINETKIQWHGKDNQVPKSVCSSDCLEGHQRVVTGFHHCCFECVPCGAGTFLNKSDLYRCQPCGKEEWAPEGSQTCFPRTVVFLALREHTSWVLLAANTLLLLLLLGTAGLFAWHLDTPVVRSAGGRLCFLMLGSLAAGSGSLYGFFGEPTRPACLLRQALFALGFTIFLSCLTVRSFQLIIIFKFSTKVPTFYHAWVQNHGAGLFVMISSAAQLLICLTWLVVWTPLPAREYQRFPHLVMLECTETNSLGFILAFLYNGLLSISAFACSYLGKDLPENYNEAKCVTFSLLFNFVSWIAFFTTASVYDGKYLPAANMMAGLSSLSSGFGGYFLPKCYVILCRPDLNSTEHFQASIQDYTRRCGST
Sequence (Q7RTX0 21-852): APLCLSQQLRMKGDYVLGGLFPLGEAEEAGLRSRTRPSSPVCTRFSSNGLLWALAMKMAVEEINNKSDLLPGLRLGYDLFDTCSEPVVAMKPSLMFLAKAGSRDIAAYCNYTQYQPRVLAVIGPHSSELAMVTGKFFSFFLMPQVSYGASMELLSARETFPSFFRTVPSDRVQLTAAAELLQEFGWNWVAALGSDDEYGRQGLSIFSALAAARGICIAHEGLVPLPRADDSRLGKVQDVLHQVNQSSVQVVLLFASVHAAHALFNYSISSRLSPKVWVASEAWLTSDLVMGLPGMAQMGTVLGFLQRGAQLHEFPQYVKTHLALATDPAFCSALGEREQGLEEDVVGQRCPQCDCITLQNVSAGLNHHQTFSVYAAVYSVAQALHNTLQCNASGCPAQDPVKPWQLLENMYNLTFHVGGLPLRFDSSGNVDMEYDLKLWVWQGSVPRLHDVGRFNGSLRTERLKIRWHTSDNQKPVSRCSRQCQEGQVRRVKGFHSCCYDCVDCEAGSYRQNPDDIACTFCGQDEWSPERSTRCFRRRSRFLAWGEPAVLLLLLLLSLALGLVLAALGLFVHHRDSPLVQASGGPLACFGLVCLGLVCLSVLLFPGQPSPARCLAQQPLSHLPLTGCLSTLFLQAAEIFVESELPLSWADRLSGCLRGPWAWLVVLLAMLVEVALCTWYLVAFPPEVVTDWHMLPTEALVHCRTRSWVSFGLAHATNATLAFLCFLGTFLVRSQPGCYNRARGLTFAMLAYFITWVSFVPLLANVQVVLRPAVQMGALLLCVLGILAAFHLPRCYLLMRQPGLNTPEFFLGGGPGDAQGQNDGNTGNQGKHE
assay.details: in vitro cell-based assay having cells that express the T1R umami taste receptor (enhancement of MSG)
stated.conditions: compound at 50 μM

>  <compound>
CCOC(=O)[C@H](CC(C)C)NC(=O)/C=C/c1ccc2c(c1)OCO2

>  <MSG Enh. Ratio>
3.4 @

$$$$
>  <compound>
CCOC(=O)[C@@H](NC(=O)c1ccc2ccccc2n1)C(C)C [Compound 133, Ethyl (quinoline-2-carbonyl)-L-valinate]

>  <MSG Enh. Ratio>
2.7 @

$$$$
>  <compound>
COC(=O)[C@H](Cc1ccccc1)NC(=O)c1ccccn1 [Compound 112, Methyl picolinoyl-L-phenylalaninate]

>  <MSG Enh. Ratio>
2.8 @

$$$$

Provenance of the data: patent US20250024871A1
